Origin of the recorded values: ChEMBL document CHEMBL1128181

- tested-target: Human immunodeficiency virus type 1 protease (Human immunodeficiency virus 1, UniProt Q72874)
experimental-readout: Ki (nM)

# example entries with known answers
compound	numeric-result
O=C(Nc1cccc(C(c2c(O)oc3c(c2=O)CCCCCC3)C2CC2)c1)c1ccc(F)cc1 (stereo unspecified)	55
O=c1c2c(oc(O)c1C(c1ccccc1)C1CC1)C(CC1CC1)CCCCC2 (stereo unspecified)	24
O=C(Cc1ccccc1)Nc1cccc(C(c2c(O)oc3c(c2=O)CCCCCC3)C2CC2)c1 (stereo unspecified)	33
CC(C)CC1CCCCCCc2c1oc(O)c(C(c1ccccc1)C1CC1)c2=O (stereo unspecified)	30
CCC1CCCCCCc2c1oc(O)c(C(c1ccccc1)C1CC1)c2=O (stereo unspecified)	33

(a) O=c1c2c(oc(O)c1C(C1CC1)C1CC1)CCCCCCC2
(b) CCCC(=O)Nc1cccc(C(c2c(O)c3c(oc2=O)CCCCCC3)C2CC2)c1 (stereo unspecified)
(c) O=C(/C=C/c1ccccc1)Nc1cccc(C(c2c(O)oc3c(c2=O)CCCCCC3)C2CC2)c1 (stereo unspecified)
Arrange the 3 compounds by rising Ki, starting with the smallest. # output: labels, in the requested order b, a, c

(I) O=c1c2c(oc(O)c1C(c1ccccc1)C1CC1)C(CC1CC1)CCCCCC2 (stereo unspecified)
(II) CCC(c1ccccc1)c1c(O)c2c(oc1=O)C(C)CCCCCC2 (stereo unspecified)
Could you point out whether the larger Ki belongs to I or to II ? Lab log: write the label of the selected item as the result. II
